# Tested on: gene editing with dCas9
# method: Screen of 322 new SSAP proteins, gene editing activity with dCas9 (Table 5)
# Type: cell-based
# studyConditions: normalized
measurementName: dCas9 with SSAP activity (normalized)

INSERT INTO assay_data (molecule, recordedvalue) VALUES
  ('SSAP_32: SEQ ID NO: 201 (protein) EFETDEEEKEMSNNQLSTQQAKRDIAIDTSVWTFQDVKRYFDPQNLLTEKQVGQALSLIKGRNLNPLANEVYIVAYKKKTGGTEFSLIVSKEAFLKRAAQNPNYEGFEAGVVTVDTDGVMHERKGALMLPGDTLVGGWARVYRKNFKVPVEIFVSREEYDKKQSTWNAMPATMIRKTALVNALREAFPEDLGNMYTEDDGGETFDRIKQAEPVESREDVMARKMAQIEQMKQEQAQRQIDTSYPTDDVIDPDDEPAQGELLEDLEY', '−0.281'),
  ('SSAP_115: SEQ ID NO: 284; Lacrimispora amygdalina (protein, listed as Lacrimispora amygdalina) AVDVKNELERKASGQNSQVKLTKSMTIADMVKALEPEIKRALPAVLTPERFTRMALSAINNTPELAGCTPMSFIAAMMNAAQLGLEPNTPLGQAYLIPYKNKGVLECQFQIGYKGMIDLAYRTGQIQVIQGQAVREFDYFEYQYGLDPKLVHRPGEEERGEITFIYGLFRLSNGGYGFEVSNKADMDAFAAKYSKSFGSKYSPWTENYEDMAKKTVIKRALKYAPVSVDFQKAMSMDETIKTEISVDMSEIRNECPEISENGEAA', '−1.307'),
  ('SSAP_203: SEQ ID NO: 372; Oenococcus oeni (protein, listed as Oenococcus oeni) SNELKTILNAPTTKEKFDEVLGRNAQGYINSVLNAVGNSKLLQNASPNSILSGAMKAATLNLSIDPNLGYAYFVPYGHEAQLQIGYQGLIQLAQRSGQIKILNAAPIYDEQFKSLDPVTGKLTLNKKIVPDTNKKPTGYVAYLKTVTGFEHTEFMSYADIEKFAKRFSKSFNSSTSPWKTDFNAMAKKTLIKQVLKYAPMSIDLQTAVSADNDDIEPKDITPDEDKETVDKISNLISDNKQDDTLSQLEEVANANN', '−0.311'),
  ('SSAP_80: SEQ ID NO: 249 (protein) GHLVSKTEQDYIKQHYAKGATDQEFEHFIGVCRARGLNPAANQIYFVKYRSKDGPAKPAFILSIDSLRLIAHRTGDYAGCSEPIFTDGGKACTVTVRRNLKSGETGNFSGMAFYDEQVQQKNGRPTSFWQSKPRTMLEKCAEAKALRKAFPQDLGQFYIREEMPPQYDEPIQVHKPKALEEPRFSKSDLSRRKGLNRKLSALGVDPSRFDEVATFLDGTPDRELGQKLKLWLKEAGYGVNQ', '−1.353'),
  ('SSAP_268: SEQ ID NO: 437; Oceanobacillus sp. E9 (protein, listed as Oceanobacillus sp.) ATNDSLKNQLSSKQGNQNTPSGYTIKQLMGAESVKKRFEEMLDSKASQFMASVINLVNGDTNLQKCDQMSVVSSAMVAATLDLPIDRNLGYAWVIPYGNQATFQLGYKGYIQLALRSGQYRNINVIEVYEGELQSFNRLTEEIELDFEKRTSDKVIGYTGFFELINGFRKTVYWSKAEIEKHKNKFSKSGFGWKNDWDAMAKKTVVRNMLNKWGILSIDMQKAYVEETKDPSEPNGEVIDLNLTEDELTAAQEQFSDENANE', '−0.400'),
  ('SSAP_62: SEQ ID NO: 231 (protein) SEISKAVATQQNPLAVVARYKRELGTVLPTVLRQDPDRWLMAAENAARKNPDIMAVTKADQGASYMRALVECARLGHEPGSKDFHFIKRGNAISGEESYRGIIKRVLNSGFYRSVVARTVFSNDTYSFDPLTDIVPNHVPAQGDRGKPLSAYAFAVHWDGTPSTVAEATPERIATAKAKSFASDKPTSPWQLPTGVMYRKTAIRELEPYVHVAPEPQPRRHLDGTVGGIPATDFDVDDGDVLDITADQLAEAGEIV', '−0.604'),
  ('SSAP_234: SEQ ID NO: 403; Cellulosilyticum lentocellum (protein, listed as Cellulosilyticum lentocellum) SDKKELVLKETHSRLNQLLATKMEAMPKDFNQTRFLQNCMTVLQDTKGIENCHPVSIARTLLKGAFLGLDFFQRECYAIPYGGELQFQTDYKGETKMAKKYSIRDIKDIYAKVVRKGDEFKEEIVAGQQVVDFKPLPFNDAEIIGAFAVVLYQDGGMEYETMSTKQIEGIRDNFSKMKNGLMWTKTPEEAYKKTVLRRLTKKIEKDFASIDQAKAYEESSDMQFKQDEQKQDAKDPFADAVDVEFTEETEGQVRLDGEADGAK', '−0.446'),
  ('SSAP_189: SEQ ID NO: 358; Asaia sp. W19 (protein, listed as Asaia sp.) SNALATPTEKLRTQITSMTGEFRNALPSHIKPEKFQRVVMTVVQQNQGLMNADRKSLLASCLKCAADGLIPDGREAALVMFGQQVQYMPMLAGIQKRIRNSGEIASIQAHVIYENDHFIWHQGIDASIEHRPLFPGDRGKAIGAYAVAKFKDGSDPQFEVMDVAAIEKVRAVSRAGKSGPWVQWWDEMARKTVFRRLSKWLPMDTEAEDLMRRDDENDAQDVAAPTIRVEAEAPSKLDALEHDDDGVVLEETRELEGSAA', '−0.952');
